assayComment: Quantitative High-Throughput drug screen in 47 multiple myeloma cell lines against the NCATS MIPE library collection: XG1_PLB cell viability assay (AID 1919866); also: nearly all actives have a fitted effect of over 35% in size
conditionContext: CellTiter-Glo ATP, 48 h; series mostly up to 45.8 µM
Inconclusive results are not listed. Calls of active or inactive are those of the source. Calls follow the shape of the dose curve; as a rule, active = well fitted cell-killing curve with a large enough effect; inconclusive = small, poorly fitted or top-dose-only effect, or effect the other way; inactive = no such curve, though single readings can be large or run the other way.
# output must be one of active, inactive

Illustrative cases are given below, each with its answer.
compound=c1coc(CNc2ncnc3nc[nH]c23)c1 cat=inactive
compound="CC(=O)O[C@@]12CO[C@H]1C[C@H](O)[C@@]1(C)C(=O)[C@H](O)C3=C(C)[C@@H](OC(=O)C(O)[C@@H](NC(=O)OC(C)(C)C)c4ccccc4)C[C@@](O)([C@@H](OC(=O)c4ccccc4)[C@@H]21)C3(C)C (stereo partly specified)" cat=inactive
compound=C=C1C(=CC=C2CCC[C@]3(C)[C@@H]([C@H](C)CCCC(C)(C)O)CC[C@@H]23)C[C@@H](O)C[C@@H]1O cat=active
compound="C[C@H](CCC(=O)O)[C@H]1CCC2C3C[C@H](O)[C@@H]4C[C@H](O)CC[C@]4(C)C3CC[C@@]21C (stereo partly specified)" cat=active
compound=CCCCCN=C(N)NN=Cc1c[nH]c2ccc(OC)cc12 cat=active

Now turn to the next compound.
Enquiry: Please share the test call associated with `CN[C@H](CC(C)C)C(=O)N[C@H]1C(=O)N[C@@H](CC(N)=O)C(=O)N[C@@H]2C(=O)N[C@H]3C(=O)N[C@H](C(=O)N[C@H](C(=O)O)c4cc(O)cc(O)c4-c4cc3ccc4O)[C@H](O)c3ccc(c(Cl)c3)Oc3cc2cc(c3O[C@@H]2O[C@H](CO)[C@@H](O)[C@H](O)[C@@H]2O[C@H]2C[C@](C)(N)[C@H](O)[C@H](C)O2)Oc2ccc(cc2Cl)[C@H]1O` .
Return: inactive

---

assayComment: qHTS of pediatric cancer cell lines to identify multiple opportunities for drug repurposing: Primary screen for TC32 cells (AID 1347089); also: nearly all actives have a fitted effect of over 60% in size
conditionContext: TC32 Ewing sarcoma viability, CellTiter-Glo luminescence, 48 h; series mostly up to 45.8 µM
Records with an inconclusive call do not appear. The source made the active and inactive calls. Calls follow the shape of the dose curve; as a rule, active = well fitted cell-killing curve with a large enough effect; inconclusive = small, poorly fitted or top-dose-only effect; inactive = flat fitted curve, though single readings scatter.
Thanks in advance; please answer with one of these: YES = active, NO = inactive

compound=COc1cc(OC)c(NC(=O)Nc2cc(C)on2)cc1Cl cat=NO
compound=CC(=CC(=O)Nc1ccccc1C(=O)O)c1ccc2ccccc2c1 cat=NO

Now consider the entry below.
Enquiry: Dear colleague, could you share the recorded outcome for `COc1ccc([C@@H]2CNC(=O)C2)cc1OC1CCCC1` when you have a moment?
Return: NO

---

assayComment: qHTS of pediatric cancer cell lines to identify multiple opportunities for drug repurposing: Primary screen for Saos-2 cells (AID 1347097); also: potency is read from the fitted curve at half-maximal effect; nearly all actives have a fitted effect of over 40% in size
conditionContext: Saos-2 viability, CellTiter-Glo ATP luminescence, 48 h; series mostly up to 46 µM
Results filed as inconclusive are left out. Activity calls are given as the source filed them. Calls follow the shape of the dose curve; as a rule, active = well fitted cell-killing curve with a large enough effect; inconclusive = small, poorly fitted or top-dose-only effect; inactive = no such curve, though single readings can be large or run the other way.
measure: Potency

Enquiry: Would you kindly share the measured Potency for CCC(C(=O)O)C1CCC(C)C(C(C)C(O)C(C)C(=O)C(CC)C2OC3(C=CC(O)[C@@]4(CC[C@](C)(C5CC[C@@](O)(CC)C(C)O5)O4)O3)C(C)CC2C)O1 (some centres undefined) ?
Return: 9.35 µM (active)

Enquiry: GET /values?readout=Potency&item= `CCc1nc(-c2cccc(C)c2)c(-c2ccnc(NC(=O)c3ccccc3)c2)s1`
Return: 16.6 µM (active)

Enquiry: Suppose we examine the compound `COc1ccc(S(=O)(=O)Nc2cccnc2Nc2ccc(O)cc2)cc1` ; what Potency value has been reported?
Return: 0.235 µM (active)

Enquiry: Look up Potency for this compound: CC(N[C@H]1CCCC[C@H]1NC(=O)c1ccc(Cl)cc1)c1cccc2ccccc12 (some centres undefined)
Return: 0.0662 µM (active)

---

# max response listing for each entry below
assayComment: qHTS Assay for Lipid Storage Modulators (AID 1519)
conditionContext: Drosophila S3 cells, BODIPY lipid droplet/cell ratio, laser cytometry; measured here: cell count channel max response; cells loaded with oleic acid
Results filed as inconclusive are left out.
Answer in %, number only, no unit symbol.

compound="Oc1cc2c(cc1O)C1c3ccc(O)c(O)c3OCC1(O)C2 (stereo unspecified)" measure="max response" measuredresult=-4.57

As a next step, examine the compound that follows.
Enquiry: I have this compound here, COc1ccc2c(c1OC)C(=O)OC2[C@H]1c2c(cc3c(c2OC)OCO3)CCN1C (stereo partly specified) , and I need its recorded max response.
Return: -11.8

---

assayComment: High-throughput drug toxicity screening in the BPDCN cell line Gen2.2 (AID 1224824);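 also: cells exposed to compounds for 48 h before reading; 100% = DMSO and 0% = bortezomib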
conditionContext: Gen2.2 BPDCN cells; at 45.8 µM (top of the series) unless noted
Listed here are compounds together with their documented cell viability, % of control (lower = more cytotoxic).
// note: answer is a bare numeric in %

Recorded cell viability, % of control (lower = more cytotoxic), per entry:
compound=O=C(CN1C(=O)C2(CCCC2)NC[C@H]1c1cc(F)cc(F)c1)Nc1ccc2c(c1)C[C@@]1(C2)C(=O)Nc2ncccc21 measuredresult=124
compound=CN(C)CC(=O)N1CCC(c2ccc(NC(=O)c3ncc(C#N)[nH]3)c(C3=CCCCC3)c2)CC1 measuredresult=168
compound="C[C@@H]1CC[C@@]2(OC1)OC1CC3C4CC=C5CC(O)CCC5(C)C4CCC3(C)C1[C@@H]2C (some centres undefined)" measuredresult=128
compound="OCC(O)C(O)C(O)CO (centres undefined)" measuredresult=59.2
compound=C[C@@H](Oc1ccc2[nH]nc(C=Cc3cnn(CCO)c3)c2c1)c1c(Cl)cncc1Cl measuredresult=8.4
compound="CC(=O)NC(CS)C(=O)O (centres undefined)" measuredresult=87
compound=C=C(C)[C@@H]1CC[C@]2(C(=O)O)CC[C@]3(C)[C@H](CC[C@@H]4[C@@]5(C)CC[C@H](O)C(C)(C)[C@@H]5CC[C@]43C)[C@@H]12 measuredresult=61.6
compound=C[C@H](NC(=O)Cc1cc(F)cc(F)c1)C(=O)N[C@H](C(=O)OC(C)(C)C)c1ccccc1 measuredresult=89

Next:
Enquiry: Return reported cell viability, % of control (lower = more cytotoxic); argument: Cc1ccccc1C(=O)Nc1ccc(C(=O)N2CCCC(O)c3cc(Cl)ccc32)c(C)c1 (centres undefined)
Return: 129

---

assayComment: qHTS profiling of the MIPE4 collection as inhibitors of Plasmodium falciparum (DD2) proliferation (AID 743345)
conditionContext: P. falciparum Dd2 in erythrocytes, SYBR Green DNA, 72 h; at 28.5 µM (top of the series) unless noted
// NB: equality with 40% counts as NO; only parasite growth remaining, % of DMSO control (lower = more inhibition) strictly below is YES

Enquiry: Please determine if `COC1=C2C[C@@H](C)C[C@H](OC)[C@@H](O)[C@@H](C)C=C(C)[C@H](OC(N)=O)[C@@H](OC)C=CC=C(C)C(=O)NC(=CC1=O)C2=O` is below 40% in terms of parasite growth remaining, % of DMSO control (lower = more inhibition).
Return: YES

Enquiry: is_below(parasite growth remaining, % of DMSO control (lower = more inhibition), 40%) for `Cc1cnc(Nc2ccc(CN3CCOCC3)cc2)nc1Nc1cccc(S(=O)(=O)NC(C)(C)C)c1` ?
Return: YES

Enquiry: Hello, I'm reviewing records and need to know if parasite growth remaining, % of DMSO control (lower = more inhibition) of `C[C@H]1C[C@H]2[C@@H]3CCC4=CC(=O)C=C[C@]4(C)[C@@H]3C(=O)C[C@]2(C)[C@@]1(O)C(=O)CO` is below 40%. Could you check?
Return: NO

Enquiry: is_below(parasite growth remaining, % of DMSO control (lower = more inhibition), 40%) for `CCOC(=O)C=C[C@H](C[C@@H]1CCNC1=O)NC(=O)[C@@H](CC(=O)[C@@H](NC(=O)c1cc(C)on1)C(C)C)Cc1ccc(F)cc1` ?
Return: NO

Enquiry: Threshold test, parasite growth remaining, % of DMSO control (lower = more inhibition) < 40%: `Cc1cc(-c2nnc3n2CCCCC3)c(C)n1-c1ccccc1`
Return: YES

Enquiry: Determine if `COc1cc2c(cc1OC)[C@@H]1C(=O)c3ccc4c(c3O[C@@H]1CO2)C=CC(C)(C)O4` shows parasite growth remaining, % of DMSO control (lower = more inhibition) strictly lower than 40%.
Return: NO

Enquiry: Confirm or reject: parasite growth remaining, % of DMSO control (lower = more inhibition) of C[C@H](CCC(=O)O)[C@H]1CCC2C3C[C@H](O)[C@@H]4C[C@H](O)CC[C@]4(C)C3CC[C@@]21C (stereo partly drawn) lies strictly below 40%
Return: NO

Enquiry: Here's an entry: `Nc1nc(=O)n([C@H]2C[C@H](O)[C@@H](CO)O2)cc1F` . Is its parasite growth remaining, % of DMSO control (lower = more inhibition) below 40%?
Return: NO

---

assayComment: qHTS of pediatric cancer cell lines to identify multiple opportunities for drug repurposing: Primary screen for TC32 cells (AID 1347089); also: nearly all actives have a fitted effect of over 60% in size
conditionContext: TC32 Ewing sarcoma viability, CellTiter-Glo luminescence, 48 h; series mostly up to 45.8 µM
Inconclusive results are not listed. Activity calls are given as the source filed them. The call rests on the fitted dose curve; in most records, active means well fitted cell-killing curve with a large enough effect; inconclusive means small, poorly fitted or top-dose-only effect; inactive means flat fitted curve, though single readings scatter.
Answer with one of the outcomes active, inactive

Below are worked cases with known answers.
compound=O=C(O)CCCCCC(=O)NN=C1CCCC1 cat=inactive
compound=CC[C@]12C=CCN3CC[C@@]4(c5cc([C@@]6(C(=O)OC)C[C@H]7C[C@@H](C(C)(F)F)CN(Cc8c6[nH]c6ccccc86)C7)c(OC)cc5N(C)[C@H]4[C@@](O)(C(=O)OC)[C@H]1OC(C)=O)[C@@H]32 cat=active
compound=C[N+](C)([O-])CCNc1ccc(NCC[N+](C)(C)[O-])c2c1C(=O)c1c(O)ccc(O)c1C2=O cat=active
compound=c1ccc(CNc2nc(NCc3ccccc3)c3ccccc3n2)cc1 cat=inactive
compound=Cc1cc(-c2nnc3n2CCCCC3)c(C)n1-c1ccccc1 cat=inactive

Enquiry: Assay outcome for `COc1ccnc2[nH]cc(C(=O)C(=O)N3CCN(C(=O)c4ccccc4)C[C@@H]3C)c12` : what was it?
Return: inactive

Enquiry: Per the assay record, what outcome was assigned to `O=C1NC(=O)C(=Cc2ccc3nccc(-c4ccncc4)c3c2)S1` ?
Return: active

Enquiry: // outcome(item) with item = `N=c1ccn2c(n1)O[C@H]1[C@@H](O)[C@@H](CO)O[C@H]12`
Return: active

Enquiry: Returns: the outcome recorded for `CCc1cnn2c(NCc3ccc[n+]([O-])c3)cc(N3CCCC[C@@H]3CCO)nc12` in this assay.
Return: active

meta.source: PubChem BioAssay (NCATS)
